molecular target: UniProt Q96RU2; assay: Concentration-response biochemical assay confirming initial hits as inhibitors of ubiquitin-specific protease 28 (AID 1645866); conditions: purified USP28, ubiquitin-rhodamine fluorescence, 30 min
Activity calls are given as the source filed them.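 How the source made its calls: active means in confirmatory dose-response testing, peak deubiquitinase inhibition of 30% or more; inactive means the rest.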
Outcomes you can answer with include only these: true (1) for active, false (0) for inactive

Worked cases, answers included:
-- ask I'd appreciate the recorded outcome for CN(C)C1CCN(C(=O)c2cc(-c3ccn(-c4ccccc4)n3)n3ccccc23)CC1 from this test.
-- reply false (0)

-- ask I'd appreciate the recorded outcome for CCCc1nc2sc3c(N(CC)CC)ncnc3c2c2c1CCC2 from this test.
-- reply true (1)

-- ask I'd appreciate the recorded outcome for O=[N+]([O-])c1ccc2c(c1)nc1n2CCN(Cc2ccco2)C1 from this test.
-- reply false (0)

-- ask I'd appreciate the recorded outcome for COc1cccc(CNC(=O)c2ccc(CSc3nc4ccncc4n3Cc3ccccc3F)cc2)c1 from this test.
-- reply true (1)

-- ask I'd appreciate the recorded outcome for CCCc1cc(=O)oc2cc(OCC(=O)NCc3ccc(OC)cc3)ccc12 from this test.
-- reply true (1)

More entries:
-- ask I'd appreciate the recorded outcome for O=C(CSc1ncnc2c1oc1ccccc12)NC1CCCC1 from this test.
-- reply true (1)

-- ask I'd appreciate the recorded outcome for CC(=O)c1ccc(NC(=O)/C(=C/c2ccco2)n2nnnc2-c2ccccc2)cc1 from this test.
-- reply true (1)

-- ask I'd appreciate the recorded outcome for COc1ccc(C(=O)NCC(c2ccc3c(c2)CCCN3C)N2CCCC2)cc1 (stereo unspecified) from this test.
-- reply false (0)

====

molecular target: Ubiquitin carboxyl-terminal hydrolase 28 (Homo sapiens) (UniProt Q96RU2); assay: Concentration-response biochemical assay confirming initial hits as inhibitors of ubiquitin-specific protease 28 (AID 1645866); conditions: purified USP28, ubiquitin-rhodamine fluorescence, 30 min
Sequence (Q96RU2 whole entry, looked up): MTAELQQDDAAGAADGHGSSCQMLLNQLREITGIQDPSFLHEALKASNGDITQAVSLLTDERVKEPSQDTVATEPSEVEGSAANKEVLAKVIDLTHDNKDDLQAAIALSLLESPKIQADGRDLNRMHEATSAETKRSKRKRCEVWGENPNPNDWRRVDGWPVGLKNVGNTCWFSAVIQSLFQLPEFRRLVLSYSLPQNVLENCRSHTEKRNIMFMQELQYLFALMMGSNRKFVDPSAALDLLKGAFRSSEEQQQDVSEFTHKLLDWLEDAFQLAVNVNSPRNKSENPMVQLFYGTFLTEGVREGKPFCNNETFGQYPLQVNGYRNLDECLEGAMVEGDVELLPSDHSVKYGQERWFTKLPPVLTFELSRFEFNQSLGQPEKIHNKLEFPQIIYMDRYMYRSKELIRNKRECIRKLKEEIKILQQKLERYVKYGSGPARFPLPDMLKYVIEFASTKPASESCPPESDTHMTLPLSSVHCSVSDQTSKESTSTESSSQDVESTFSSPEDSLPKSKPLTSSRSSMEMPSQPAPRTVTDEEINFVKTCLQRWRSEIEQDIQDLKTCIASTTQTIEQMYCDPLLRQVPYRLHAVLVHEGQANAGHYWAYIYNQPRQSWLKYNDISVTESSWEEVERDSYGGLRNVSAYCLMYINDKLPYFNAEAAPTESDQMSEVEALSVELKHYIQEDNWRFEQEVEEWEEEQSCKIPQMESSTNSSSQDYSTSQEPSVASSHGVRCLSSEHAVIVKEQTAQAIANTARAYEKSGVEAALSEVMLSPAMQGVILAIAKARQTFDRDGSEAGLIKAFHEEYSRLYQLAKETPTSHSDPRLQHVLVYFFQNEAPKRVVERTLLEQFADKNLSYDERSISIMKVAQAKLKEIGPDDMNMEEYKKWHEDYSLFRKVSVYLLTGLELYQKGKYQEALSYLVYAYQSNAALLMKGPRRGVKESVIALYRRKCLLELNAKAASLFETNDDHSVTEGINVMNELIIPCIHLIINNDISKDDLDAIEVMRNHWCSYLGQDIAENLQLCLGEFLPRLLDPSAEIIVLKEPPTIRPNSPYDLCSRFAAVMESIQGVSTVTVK
Active and inactive are the calls of the source.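 Rule for the calls: active = in confirmatory dose-response testing, peak deubiquitinase inhibition of 30% or more; inactive = the rest.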
Outcomes you can answer with include only these: 1 (yes) for active, 0 (no) for inactive

Worked cases, answers included:
-- ask I'd appreciate the recorded outcome for O=C(/C=C/c1ccc2c(c1)OCO2)Nc1nc2c(s1)COCC2 from this test.
-- reply 1 (yes)

-- ask I'd appreciate the recorded outcome for Nc1nonc1C(=O)NCCNCc1cccc(OCc2ccc(Cl)cc2)c1 from this test.
-- reply 1 (yes)

-- ask I'd appreciate the recorded outcome for Cc1ccc(C(=O)CCC(=O)OCC(=O)c2ccc3[nH]c(=O)[nH]c3c2)cc1 from this test.
-- reply 1 (yes)

-- ask I'd appreciate the recorded outcome for COc1ccc(/C=C/C(=O)Nc2c3c(nc4c2CCC4)CCCC3)cc1 from this test.
-- reply 1 (yes)

More entries:
-- ask I'd appreciate the recorded outcome for CC1(C)Cc2c(c(-c3ccco3)nc3sc4c(SCCCc5ccccc5)ncnc4c23)CO1 from this test.
-- reply 1 (yes)

-- ask I'd appreciate the recorded outcome for O=C(OCCCN1C(=O)c2cccc3c(N4CCCCC4)ccc(c23)C1=O)c1ccccn1 from this test.
-- reply 0 (no)

-- ask I'd appreciate the recorded outcome for Cc1cccc(NC(=O)c2noc3c2CCc2sccc2-3)n1 from this test.
-- reply 1 (yes)

-- ask I'd appreciate the recorded outcome for C=C(NC(=O)C(=C)NC(=O)c1csc(-c2ccc3c(n2)-c2csc(n2)-c2csc(n2)C(C(C)C2CO2)NC(=O)C(Cc2ccc(O)cc2)NC(=O)c2csc(n2)C(C(O)c2ccccc2)NC(=O)c2nc(sc2C)C(CC(N)=O)NC(=O)c2csc-3n2)n1)C(=O)O (stereo unspecified) from this test.
-- reply 1 (yes)

-- ask I'd appreciate the recorded outcome for COC(=O)c1sccc1NC(=O)COc1ccsc1C(=O)OC from this test.
-- reply 1 (yes)

-- ask I'd appreciate the recorded outcome for O=C(CCc1nnc2n(Cc3ccccc3Cl)c(=O)c3ccccc3n12)NCc1ccccn1 from this test.
-- reply 1 (yes)

-- ask I'd appreciate the recorded outcome for CCOC(=O)c1ccc(S(=O)(=O)N2CCC(C(=O)OC(C)C(=O)Nc3cccc([N+](=O)[O-])c3)CC2)cc1 (stereo unspecified) from this test.
-- reply 1 (yes)

-- ask I'd appreciate the recorded outcome for O=C(CN1CCCCC1)Nc1nnc(-c2ccc([N+](=O)[O-])cc2)s1 from this test.
-- reply 1 (yes)
